Tested on: Rattus norvegicus
assay: Hypolipidemic activity in Sprague-Dawley rat assessed as reduction in serum triglyceride level at 0.25 % compound administered in diet for 14 days relative to control
Type: functional
Design: scale not given: the % may be the effect or the level left
measured.attribute: Activity (%)
Value expressed in %; do not type the unit.

Task: Report Activity for CCOC(=O)C(CC)Sc1cc(C(C)(C)C)c(O)c(C(C)(C)C)c1 (stereo not given)
Result: -55

Task: Answer with the recorded Activity for the compound listed here: CC(Sc1cc(C(C)(C)C)c(O)c(C(C)(C)C)c1)C(=O)O (stereo not given)
Result: -78

Task: Specify Activity for CCC(C)(Sc1cc(C(C)(C)C)c(O)c(C(C)(C)C)c1)C(=O)O (stereo not given) and stop.
Result: -80

Task: # return recorded Activity for input CCCCC(Sc1cc(C(C)(C)C)c(O)c(C(C)(C)C)c1)C(=O)O (racemic)
Result: -69

Task: Annotate the compound CCCCC(C(=O)O)S(=O)(=O)c1cc(C(C)(C)C)c(O)c(C(C)(C)C)c1 (stereo not given) with its measured Activity.
Result: -44
